Target: E. coli 70S ribosome particle (E. coli)
Test: ITC, 30 °C, peptide titrated into E. coli 70S ribosome
Square brackets hold non-standard residues; d marks the D form. Ends that are not written are not given here. Cha = N[C@@H](CC1CCCCC1)C(=O)O
readout: Kd (nM)
Only the number, expressed in nM, is required.

Ask: What measured Kd goes with VDKGSYLPRPTPPRPIYNRNGPR[Cha]FQLD-OH [P188 (Py-P7Scr), …haGQLD-OH] ?
Reply: 75.8

// data source = patent US20220002344A1
